- measurement-description: Plasma pharmacokinetics of C10, saline- and 1b-treated groups
- Format: in vivo, Male Kunming mice
- study-conditions: male, Kunming, mouse, plasma, iv, 0.45 mg/kg, C10 in plasma, 1b-treated Group; read-out: MRT0-t
- Method: Male Kunming mice (30 ± 2 g) were used in the pharmacokinetic study. Drugs were injected through the tail vein of mice. Blood, liver, and kidney tissues were collected at certain intervals after administration with 6 mice at each time point. Blood samples were placed in heparin sodium tubes and centrifuged at 6000 rpm for 20 minutes at 4^ oC to obtain plasma samples. […] The drug concentrations were determined by Liquid chromatography-mass spectrometry (Waters ACQUITY UPLC/Xevo TQ-S). […]
measurement-type: MRT last (min)
Answers are plain numbers, in min.

Input: I have this compound here, C[N+](C)(C)CCCCCCCCCC[N+](C)(C)C , and I need its recorded MRT last.
Output: 9

* * *

- measurement-description: Plasma pharmacokinetics of C10, saline- and 1b-treated groups
- Format: in vivo, Male Kunming mice
- study-conditions: male, Kunming, mouse, plasma, iv, 0.45 mg/kg, C10 in plasma, 1b-treated Group; read-out: Vz
measurement-type: Vd

Input: Look up Vd: C[N+](C)(C)CCCCCCCCCC[N+](C)(C)C
Output: 0.3 L/kg

* * *

- measurement-description: Plasma pharmacokinetics of C10, saline- and 1b-treated groups
- Type: in vivo, Male Kunming mice
- study-conditions: male, Kunming, mouse, plasma, iv, 0.45 mg/kg, C10, saline-treated Group; read-out: area under the plasma concentration-time curve (AUC0-∞)
measurement-type: AUC(0-inf) (ng·h/mL)
Numbers only, in ng·h/mL.

Input: Looking for the measured AUC(0-inf) of C[N+](C)(C)CCCCCCCCCC[N+](C)(C)C , can you help?
Output: 294

* * *

- measurement-description: Lethal TC poisoning mouse model (Dixon's up-and-down, probit)
- Assay type: in vivo, female Balb/c mice
- study-conditions: female, Balb/c, mouse, in vivo, iv, TC i.v., mice, probit analysis
measurement-type: LD50

Input: What value of LD50 has been reported for the following compound? CCCCNc1ccc(C(=O)OCCN(C)C)cc1
Output: 6.92 mg/kg

* * *

- measurement-description: Plasma pharmacokinetics of C10, saline- and 1b-treated groups
- Type: in vivo, Male Kunming mice
- study-conditions: male, Kunming, mouse, plasma, iv, 0.45 mg/kg, C10 in plasma, Saline-treated Group
- Procedure: Male Kunming mice (30 ± 2 g) were used in the pharmacokinetic study. Drugs were injected through the tail vein of mice. Blood, liver, and kidney tissues were collected at certain intervals after administration with 6 mice at each time point. Blood samples were placed in heparin sodium tubes and centrifuged at 6000 rpm for 20 minutes at 4^ oC to obtain plasma samples. […] The drug concentrations were determined by Liquid chromatography-mass spectrometry (Waters ACQUITY UPLC/Xevo TQ-S). […]
measurement-type: Cmax (ng/mL)
Answers are plain numbers, in ng/mL.

Input: Query: Cmax; subject: C[N+](C)(C)CCCCCCCCCC[N+](C)(C)C
Output: 1310

* * *

- measurement-description: Plasma pharmacokinetics of C10, saline- and 1b-treated groups
- Type: in vivo, Male Kunming mice
- study-conditions: male, Kunming, mouse, iv, 0.45 mg/kg; C10 in plasma, Saline-treated Group
measurement-type: Tmax (min)
One number for each entry, in min.

Input: Item C[N+](C)(C)CCCCCCCCCC[N+](C)(C)C has what recorded Tmax?
Output: 3

* * *

- measurement-description: Plasma pharmacokinetics of C10, saline- and 1b-treated groups
- Type: in vivo, Male Kunming mice
- study-conditions: male, Kunming, mouse, plasma, iv, 0.45 mg/kg, C10 in plasma, Saline-treated Group; read-out: AUC0-∞
- Procedure: Male Kunming mice (30 ± 2 g) were used in the pharmacokinetic study. Drugs were injected through the tail vein of mice. Blood, liver, and kidney tissues were collected at certain intervals after administration with 6 mice at each time point. Blood samples were placed in heparin sodium tubes and centrifuged at 6000 rpm for 20 minutes at 4^ oC to obtain plasma samples. […] The drug concentrations were determined by Liquid chromatography-mass spectrometry (Waters ACQUITY UPLC/Xevo TQ-S). […]
measurement-type: AUC(0-inf)

Input: So what's the measured AUC(0-inf) for this one? C[N+](C)(C)CCCCCCCCCC[N+](C)(C)C [C10, Decamethonium]
Output: 294 ng·h/mL

* * *

- measurement-description: Plasma pharmacokinetics of C10, saline- and 1b-treated groups
- Type: in vivo, Male Kunming mice
- study-conditions: male, Kunming, mouse, plasma, iv, 0.45 mg/kg, C10, 1b-treated Group; read-out: area under the plasma concentration-time curve (AUC0-∞)
measurement-type: AUC(0-inf) (µg·h/mL)
One number for each entry, in µg·h/mL.

Input: Given the entry C[N+](C)(C)CCCCCCCCCC[N+](C)(C)C [C10, Decamethonium] , report its measured AUC(0-inf).
Output: 0.414

* * *

- measurement-description: Plasma pharmacokinetics of C10, saline- and 1b-treated groups
- Format: in vivo, Male Kunming mice
- study-conditions: male, Kunming, mouse, plasma, iv, 0.45 mg/kg, C10 in plasma, 1b-treated Group; read-out: MRT0-∞
measurement-type: MRT inf
Number first, unit second: that is the form wanted.

Input: Query (compound): C[N+](C)(C)CCCCCCCCCC[N+](C)(C)C [C10, Decamethonium] ; field requested: MRT inf
Output: 10.2 min

* * *

- measurement-description: Plasma pharmacokinetics of C10, saline- and 1b-treated groups
- Type: in vivo, Male Kunming mice
- study-conditions: male, Kunming, mouse, plasma, iv, 0.45 mg/kg, C10 in plasma, Saline-treated Group; read-out: T1/2z (converted)
measurement-type: half-life (min)
Answers are plain numbers, in min.

Input: What does the data say about its half-life? Entry: C[N+](C)(C)CCCCCCCCCC[N+](C)(C)C
Output: 21.6

* * *

- measurement-description: Plasma pharmacokinetics of C10, saline- and 1b-treated groups
- Format: in vivo, Male Kunming mice
- study-conditions: male, Kunming, mouse, plasma, iv, 0.45 mg/kg, C10 in plasma, Saline-treated Group; read-out: MRT0-∞
measurement-type: MRT inf (min)
Numbers only, in min.

Input: Any idea what MRT inf was measured for C[N+](C)(C)CCCCCCCCCC[N+](C)(C)C [C10, Decamethonium] ?
Output: 9.6

* * *

- measurement-description: Plasma pharmacokinetics of C10, saline- and 1b-treated groups
- Format: in vivo, Male Kunming mice
- study-conditions: male, Kunming, mouse, plasma, iv, 0.45 mg/kg, C10 in plasma, Saline-treated Group
measurement-type: AUC(0-t) (ng·h/mL)
One number for each entry, in ng·h/mL.

Input: Give its AUC(0-t) value. Item: C[N+](C)(C)CCCCCCCCCC[N+](C)(C)C
Output: 284

* * *

- measurement-description: Plasma pharmacokinetics of C10, saline- and 1b-treated groups
- Assay type: in vivo, Male Kunming mice
- study-conditions: male, Kunming, mouse, plasma, iv, 0.45 mg/kg, C10 in plasma, 1b-treated Group
- Method: Male Kunming mice (30 ± 2 g) were used in the pharmacokinetic study. Drugs were injected through the tail vein of mice. Blood, liver, and kidney tissues were collected at certain intervals after administration with 6 mice at each time point. Blood samples were placed in heparin sodium tubes and centrifuged at 6000 rpm for 20 minutes at 4^ oC to obtain plasma samples. […] The drug concentrations were determined by Liquid chromatography-mass spectrometry (Waters ACQUITY UPLC/Xevo TQ-S). […]
measurement-type: Cmax (ng/mL)
Answers are plain numbers, in ng/mL.

Input: Which Cmax value is on record for C[N+](C)(C)CCCCCCCCCC[N+](C)(C)C ?
Output: 1630

* * *

- measurement-description: Plasma pharmacokinetics of C10, saline- and 1b-treated groups
- Type: in vivo, Male Kunming mice
- study-conditions: male, Kunming, mouse, plasma, iv, 0.45 mg/kg, C10 in plasma, Saline-treated Group; read-out: Vz
measurement-type: Vd

Input: GET /values?readout=Vd&item= C[N+](C)(C)CCCCCCCCCC[N+](C)(C)C [C10, Decamethonium]
Output: 0.8 L/kg

* * *

- measurement-description: Plasma pharmacokinetics of C10, saline- and 1b-treated groups
- Assay type: in vivo, Male Kunming mice
- study-conditions: male, Kunming, mouse, plasma, iv, 0.45 mg/kg, C10 in plasma, 1b-treated Group
measurement-type: AUC(0-t) (ng·h/mL)
Give bare numbers, in ng·h/mL.

Input: Quick one: AUC(0-t) of C[N+](C)(C)CCCCCCCCCC[N+](C)(C)C ?
Output: 406

* * *

- measurement-description: Lethal C10 poisoning mouse model (Dixon's up-and-down, probit)
- Format: in vivo
- study-conditions: Balb/c, mouse, in vivo, iv; C10 i.v., mice, probit analysis
measurement-type: LD50 (mg/kg)
Numbers only, in mg/kg.

Input: Query (compound): C[N+](C)(C)CCCCCCCCCC[N+](C)(C)C ; field requested: LD50
Output: 0.69

From: paper PMC11388068
